Experiment: Biodistribution of 18F-labelled tracers in rats
Type: in vivo
Conditions: rats; 30 min; corrected for decay of 18F
Assay endpoint: Biodistribution: Bone (% ID/g)

# Molecule, Unit abbrev, Reported
rows = [
    ("CCN(CC)C(=O)Cc1c(-c2ccc(OCCF)cc2)nc2ccc(Cl)cn12 [PBR102]", "% ID/g", 0.52),
    ("CCN(CC)C(=O)Cc1c(-c2ccc(OCCCF)cc2)nn2c(C)cc(C)nc12 [PBR146*]", "% ID/g", 1.46),
    ("CCN(CC)C(=O)Cc1c(-c2ccc(C(C)(C)C)cc2)nc2ccc([18F])nn12 [PBR132*]", "% ID/g", 1.25),
    ("CCN(CC)C(=O)Cc1c(-c2ccc(OCCCF)cc2)nc2ccc(Cl)cn12 [PBR111]", "% ID/g", 1.22),
]

###

Experiment: Biodistribution of 18F-labelled tracers in rats
Format: in vivo
Conditions: SD rats; 4 hours; decay correction not stated
Assay endpoint: Biodistribution: Bone (% ID/g)

# Item smiles, Reported
measured = [
    ("CCN(CC)C(=O)Cc1c(-c2ccc(C(C)(C)C)cc2)nc2ccc([18F])nn12", 3.3),
    ("CN(C(=O)Cc1c(-c2ccc(OCCCF)cc2)nc2c(Cl)cc(Cl)cn12)c1ccccc1", 2.9),
    ("CCN(CC)C(=O)Cc1c(-c2ccc(OCCCF)cc2)nn2c(C)cc(C)nc12", 5.0),
    ("CCN(CC)C(=O)Cc1c(-c2ccc(OCCCF)cc2)nc2ccc(Cl)cn12", 4.3),
    ("CCN(CC)C(=O)Cc1c(-c2ccc(OCCF)cc2)nc2ccc(Cl)cn12", 1.0),
]

###

Test: Biodistribution of 18F-labelled tracers in rats
Format: in vivo
Conditions: rats; 60 min; corrected for decay of 18F
Procedure: [^18F]Fluoride, in the form of H^18F, was produced by the ^18O(p,n)^18F nuclear reaction by bombardment of ^18O-enriched water target. […] The biodistribution of PBR132* was undertaken in SD rats and analysis up to 4 h p.i. in the brain and peripheral tissues was performed. The specificity and selectivity of the tracer were assessed by pre-treatment with PBR and Central benzodiazepine receptor (CBR) specific ligands (1 mg/kg) 5 min prior to injection of PBR132*. […]
Biodistribution: Bone for assorted compounds
Assay endpoint: Biodistribution: Bone (% ID/g)

# Item smiles, Unit abbrev, Reported
rows = [
    ("CCN(CC)C(=O)Cc1c(-c2ccc(OCCCF)cc2)nc2ccc(Cl)cn12", "% ID/g", 2.04),
    ("CCN(CC)C(=O)Cc1c(-c2ccc(OCCF)cc2)nc2ccc(Cl)cn12", "% ID/g", 0.64),
    ("CCN(CC)C(=O)Cc1c(-c2ccc(OCCCF)cc2)nn2c(C)cc(C)nc12", "% ID/g", 2.07),
    ("CCN(CC)C(=O)Cc1c(-c2ccc(C(C)(C)C)cc2)nc2ccc([18F])nn12", "% ID/g", 2.06),
]

###

Experiment: Biodistribution of 18F-labelled tracers in rats
Assay type: in vivo
Conditions: rats; 15 min; corrected for decay of 18F
Assay endpoint: Biodistribution: Bone (% ID/g)

# Item smiles, Reported
rows = [
    ("CCN(CC)C(=O)Cc1c(-c2ccc(OCCF)cc2)nc2ccc(Cl)cn12", 0.46),
    ("CCN(CC)C(=O)Cc1c(-c2ccc(OCCCF)cc2)nn2c(C)cc(C)nc12", 1.06),
    ("CCN(CC)C(=O)Cc1c(-c2ccc(OCCCF)cc2)nc2ccc(Cl)cn12", 0.87),
    ("CCN(CC)C(=O)Cc1c(-c2ccc(C(C)(C)C)cc2)nc2ccc([18F])nn12", 1.04),
]
